molecular target: Mitogen-activated protein kinase kinase kinase kinase 4 (Homo sapiens, UniProt O95819); also: in the data inactive means no Kd found up to 30 µM
Sequence (O95819 whole entry): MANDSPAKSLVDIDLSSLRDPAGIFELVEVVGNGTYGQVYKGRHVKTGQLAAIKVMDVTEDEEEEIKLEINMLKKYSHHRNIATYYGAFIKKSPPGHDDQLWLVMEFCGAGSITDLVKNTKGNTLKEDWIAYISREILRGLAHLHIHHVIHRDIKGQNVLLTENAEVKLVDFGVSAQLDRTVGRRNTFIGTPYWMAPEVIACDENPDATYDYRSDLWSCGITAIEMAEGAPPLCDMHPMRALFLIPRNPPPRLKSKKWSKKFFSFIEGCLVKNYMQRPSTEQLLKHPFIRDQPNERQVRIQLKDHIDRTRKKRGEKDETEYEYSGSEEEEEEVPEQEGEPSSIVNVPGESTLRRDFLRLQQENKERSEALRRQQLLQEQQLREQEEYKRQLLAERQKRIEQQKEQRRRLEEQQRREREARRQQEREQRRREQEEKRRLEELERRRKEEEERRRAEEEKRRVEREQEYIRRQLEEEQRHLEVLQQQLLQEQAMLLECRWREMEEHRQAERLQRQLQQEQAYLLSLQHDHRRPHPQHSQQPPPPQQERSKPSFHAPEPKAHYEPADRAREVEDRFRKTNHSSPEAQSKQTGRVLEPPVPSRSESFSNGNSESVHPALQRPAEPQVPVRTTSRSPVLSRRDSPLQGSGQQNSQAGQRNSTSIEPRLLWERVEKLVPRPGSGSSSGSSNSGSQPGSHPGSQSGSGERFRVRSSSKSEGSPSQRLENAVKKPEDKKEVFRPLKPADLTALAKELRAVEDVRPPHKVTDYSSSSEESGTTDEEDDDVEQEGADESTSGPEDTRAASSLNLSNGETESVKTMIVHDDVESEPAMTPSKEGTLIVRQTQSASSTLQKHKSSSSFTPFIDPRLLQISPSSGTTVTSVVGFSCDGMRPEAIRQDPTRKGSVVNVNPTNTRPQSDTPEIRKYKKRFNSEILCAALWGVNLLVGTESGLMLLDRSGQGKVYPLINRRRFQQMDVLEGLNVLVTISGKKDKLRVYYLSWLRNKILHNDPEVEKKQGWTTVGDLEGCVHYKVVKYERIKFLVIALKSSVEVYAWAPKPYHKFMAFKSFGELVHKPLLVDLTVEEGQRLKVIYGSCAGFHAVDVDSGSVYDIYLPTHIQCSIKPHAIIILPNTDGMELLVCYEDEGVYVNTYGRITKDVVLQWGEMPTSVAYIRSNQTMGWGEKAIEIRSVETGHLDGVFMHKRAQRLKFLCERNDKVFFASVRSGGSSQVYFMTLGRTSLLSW
Active and inactive are the calls of the source.
Outcome field: choose from Yes for active, No for inactive

## Task Recorded call for FC(F)(F)c1ccc(CNc2ccc(Cc3c[nH]c4ncc(Cl)cc34)cn2)cn1 [PEXIDARTINIB] ?
## Result No

## Task Recorded call for O=C(Nc1ccc(OC(F)(F)F)cc1)c1sccc1NCc1ccnc2ccccc12 [OSI-930] ?
## Result No

## Task Recorded call for CCc1nc(C(N)=O)c(Nc2ccc(N3CCC(N4CCN(C)CC4)CC3)c(OC)c2)nc1NC1CCOCC1 [GILTERITINIB] ?
## Result Yes

## Task Recorded call for COc1cc(F)c(F)c(Nc2ccc(I)cc2F)c1NS(=O)(=O)C1(C[C@H](O)CO)CC1 [REFAMETINIB] ?
## Result No

## Task Recorded call for Cc1cc(-c2cc(OC(=O)c3ccccc3)ccc2Cl)cc2nnc(Nc3ccc(OCCN4CCCC4)cc3)nc12 [TG100-801] ?
## Result No

## Task Recorded call for CCN1CCN(Cc2ccc(Nc3ncc(F)c(-c4cc(F)c5nc(C)n(C(C)C)c5c4)n3)nc2)CC1 [ABEMACICLIB] ?
## Result Yes

## Task Recorded call for O=S(=O)(c1cccc2c(O)nccc12)N1CCCNCC1 [HYDROXYFASUDIL] ?
## Result No

## Task Recorded call for O=C(NOC[C@H](O)CO)c1ccc(F)c(F)c1Nc1ccc(I)cc1F [MIRDAMETINIB] ?
## Result No

## Task Recorded call for COc1cc2ncnc(Nc3ccc(O)cc3)c2cc1OC [WHI-P131] ?
## Result No

## Task Recorded call for CNC(=O)c1ccc(Nc2ncc(C(F)(F)F)c(NCc3nccnc3N(C)S(C)(=O)=O)n2)cc1 [DEFACTINIB] ?
## Result No

## Task Recorded call for c1cc(OCCN2CCCCC2)cc(-c2n[nH]c3ccc(-c4nc[nH]n4)cc23)c1 [CC-401] ?
## Result Yes

## Task Recorded call for C=CC(=O)Nc1cc(Nc2nccc(-c3cn(C)c4ccccc34)n2)c(OC)cc1N(C)CCN(C)C [OSIMERTINIB] ?
## Result No

## Task Recorded call for Cn1c(=O)c(F)c(Nc2ccc(I)cc2F)c2c(=O)n(C[C@@H](O)CO)cnc21 [TAK-733] ?
## Result No

## Task Recorded call for NC[C@@](O)(c1ccc(Cl)cc1)c1ccc(-c2cn[nH]c2)cc1 [AT-13148] ?
## Result No

## Task Recorded call for O=C(O)c1ccc2c(c1)nc(Nc1cccc(Cl)c1)c1ccncc12 [SILMITASERTIB] ?
## Result No

## Task Recorded call for CC1(COc2ccc3c(c2)ncn3-c2ccc3cccc(N4CCC(N)CC4)c3n2)COC1 [CRENOLANIB] ?
## Result Yes

###

molecular target: STE20-like serine/threonine-protein kinase (Homo sapiens, UniProt Q9H2G2); also: in the data inactive means no Kd found up to 30 µM
Sequence (Q9H2G2 whole entry): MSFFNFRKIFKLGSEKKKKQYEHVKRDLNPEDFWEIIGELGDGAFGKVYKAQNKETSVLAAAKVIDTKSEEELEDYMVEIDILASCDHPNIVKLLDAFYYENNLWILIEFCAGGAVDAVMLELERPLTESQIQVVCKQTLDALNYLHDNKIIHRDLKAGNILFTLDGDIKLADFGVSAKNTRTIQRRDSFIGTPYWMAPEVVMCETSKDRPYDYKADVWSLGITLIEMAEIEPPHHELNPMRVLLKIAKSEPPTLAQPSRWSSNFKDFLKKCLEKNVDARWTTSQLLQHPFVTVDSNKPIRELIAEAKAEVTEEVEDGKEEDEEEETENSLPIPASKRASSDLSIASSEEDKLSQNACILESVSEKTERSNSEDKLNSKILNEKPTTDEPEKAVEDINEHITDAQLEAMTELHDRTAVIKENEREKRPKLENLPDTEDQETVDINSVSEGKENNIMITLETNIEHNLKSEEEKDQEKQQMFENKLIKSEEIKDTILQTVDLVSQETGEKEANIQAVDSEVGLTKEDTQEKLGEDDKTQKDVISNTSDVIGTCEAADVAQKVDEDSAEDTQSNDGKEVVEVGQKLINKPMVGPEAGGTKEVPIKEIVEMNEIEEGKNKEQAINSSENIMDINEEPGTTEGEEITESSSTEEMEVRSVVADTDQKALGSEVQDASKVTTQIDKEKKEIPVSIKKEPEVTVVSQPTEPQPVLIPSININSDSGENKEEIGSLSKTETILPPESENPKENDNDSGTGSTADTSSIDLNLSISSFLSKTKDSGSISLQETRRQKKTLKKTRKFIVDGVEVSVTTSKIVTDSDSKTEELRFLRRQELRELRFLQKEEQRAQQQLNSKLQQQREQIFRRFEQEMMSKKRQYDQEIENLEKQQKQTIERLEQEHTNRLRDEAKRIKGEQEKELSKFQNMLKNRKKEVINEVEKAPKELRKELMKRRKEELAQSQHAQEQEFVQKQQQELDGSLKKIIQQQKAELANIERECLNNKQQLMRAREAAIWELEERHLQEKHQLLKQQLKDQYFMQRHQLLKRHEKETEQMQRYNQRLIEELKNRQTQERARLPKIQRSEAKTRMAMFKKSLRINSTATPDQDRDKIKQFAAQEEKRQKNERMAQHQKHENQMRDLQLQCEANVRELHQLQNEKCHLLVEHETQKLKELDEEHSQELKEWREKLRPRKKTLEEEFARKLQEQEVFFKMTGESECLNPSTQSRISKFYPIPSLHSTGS
Active and inactive are the calls of the source.
Outcome field: choose from Yes (active), No (inactive)

## Task Recorded call for `Cc1cc(C(=O)Nc2cc(Oc3ccc4nc(NC(=O)C5CC5)cn4n3)ccc2C)n(C)n1` ?
## Result No

## Task Recorded call for `O=C(NC[C@H](O)CO)c1ccncc1Nc1ccc(I)cc1F` ?
## Result No

## Task Recorded call for `CNC(=O)c1ccc(Nc2ncc(C(F)(F)F)c(NCc3nccnc3N(C)S(C)(=O)=O)n2)cc1` ?
## Result Yes

## Task Recorded call for `NC[C@@](O)(c1ccc(Cl)cc1)c1ccc(-c2cn[nH]c2)cc1` ?
## Result No

## Task Recorded call for `Cc1c(NC(=O)OC[C@@H]2COCCN2)cn2ncnc(Nc3ccc4c(cnn4Cc4cccc(F)c4)c3)c12` ?
## Result No

## Task Recorded call for `S=C(NCc1ccc2c(c1)OCO2)N1CCN(c2ncnc3c2oc2ccccc23)CC1` ?
## Result No

## Task Recorded call for `CN1CCN(c2nc(C3=C(c4c[nH]c5ccccc45)C(=O)NC3=O)c3ccccc3n2)CC1` ?
## Result No

## Task Recorded call for `C=CC(=O)Nc1cc(Nc2nccc(-c3cn(C)c4ccccc34)n2)c(OC)cc1N(C)CCN(C)C` ?
## Result No

###

Activity calls are given as the source filed them.
Measured metric: Kd

Record CCc1cc2c(cc1N1CCC(N3CCOCC3)CC1)C(C)(C)c1[nH]c3cc(C#N)ccc3c1C2=O [ALECTINIB] has Serine/threonine-protein kinase MRCK alpha (Homo sapiens, UniProt Q5VT25) Kd equal to > 30 µM (inactive)

Record COc1cc2ncnc(Nc3ccc(O)cc3)c2cc1OC [WHI-P131] has Serine/threonine-protein kinase MRCK alpha (Homo sapiens, UniProt Q5VT25) Kd equal to > 30 µM (inactive)

Record `O=c1[nH]c([C@@H]2CCCN2)nc2c1oc1ccc(Cl)cc12` has Serine/threonine-protein kinase MRCK alpha (Homo sapiens, UniProt Q5VT25) Kd equal to > 30 µM (inactive)

Record Cc1ccc(C(=O)Nc2ccc(Oc3cc4cnn(C)c4cc3-c3cn[nH]c3)c(F)c2)c(=O)n1-c1ccc(F)cc1 [MERESTINIB] has Serine/threonine-protein kinase MRCK alpha (Homo sapiens, UniProt Q5VT25) Kd equal to > 30 µM (inactive)

Record Cc1cc(-c2cc(OC(=O)c3ccccc3)ccc2Cl)cc2nnc(Nc3ccc(OCCN4CCCC4)cc3)nc12 [TG100-801] has Serine/threonine-protein kinase MRCK alpha (Homo sapiens, UniProt Q5VT25) Kd equal to > 30 µM (inactive)

Record O=C(Nc1ccc(OC(F)(F)F)cc1)c1sccc1NCc1ccnc2ccccc12 [OSI-930] has Serine/threonine-protein kinase MRCK alpha (Homo sapiens, UniProt Q5VT25) Kd equal to > 30 µM (inactive)

Record CCc1nc(C(N)=O)c(Nc2ccc(N3CCC(N4CCN(C)CC4)CC3)c(OC)c2)nc1NC1CCOCC1 [GILTERITINIB] has Serine/threonine-protein kinase MRCK alpha (Homo sapiens, UniProt Q5VT25) Kd equal to > 30 µM (inactive)

Record c1cc(OCCN2CCCCC2)cc(-c2n[nH]c3ccc(-c4nc[nH]n4)cc23)c1 [CC-401] has Serine/threonine-protein kinase MRCK alpha (Homo sapiens, UniProt Q5VT25) Kd equal to > 30 µM (inactive)

Record COc1cc2ncnc3c2cc1OCCCCCN(C)Cc1ccc(Br)cc1N3 [JNJ-26483327] has Serine/threonine-protein kinase MRCK alpha (Homo sapiens, UniProt Q5VT25) Kd equal to > 30 µM (inactive)

Record CNC(=O)c1ccc(Nc2ncc(C(F)(F)F)c(NCc3nccnc3N(C)S(C)(=O)=O)n2)cc1 [DEFACTINIB] has Serine/threonine-protein kinase MRCK alpha (Homo sapiens, UniProt Q5VT25) Kd equal to > 30 µM (inactive)

Record COc1cc2ncnc(Nc3ccc(F)c(Cl)c3)c2cc1NC(=O)/C=C/CN1CCCCC1 [DACOMITINIB ANHYDROUS] has Serine/threonine-protein kinase MRCK alpha (Homo sapiens, UniProt Q5VT25) Kd equal to > 30 µM (inactive)

Record C=CCN(/C=C1/C(=O)O[C@H](COC)[C@@]2(C)C1=C(O)C(=O)C1=C2[C@H](OC(C)=O)C[C@]2(C)C(=O)CC[C@@H]12)CC=C [SONOLISIB] has Serine/threonine-protein kinase MRCK alpha (Homo sapiens, UniProt Q5VT25) Kd equal to > 30 µM (inactive)

Record O=S(=O)(c1cccc2c(O)nccc12)N1CCCNCC1 [HYDROXYFASUDIL] has Serine/threonine-protein kinase MRCK alpha (Homo sapiens, UniProt Q5VT25) Kd equal to > 30 µM (inactive)

Record Cn1c(=O)n(-c2ccc(C(C)(C)C#N)cc2)c2c3cc(-c4cnc5ccccc5c4)ccc3ncc21 [DACTOLISIB] has Serine/threonine-protein kinase MRCK alpha (Homo sapiens, UniProt Q5VT25) Kd equal to > 30 µM (inactive)

Record `Cn1cc(-c2[nH]c3cc(NC(=O)[C@H](N)C4CCCCC4)cc4c3c2C=NNC4=O)cn1` has Serine/threonine-protein kinase MRCK alpha (Homo sapiens, UniProt Q5VT25) Kd equal to > 30 µM (inactive)

Record CCN(CCCOc1ccc2c(Nc3cc(CC(=O)Nc4cccc(F)c4)n[nH]3)ncnc2c1)CCOP(=O)(O)O [BARASERTIB] has Serine/threonine-protein kinase MRCK alpha (Homo sapiens, UniProt Q5VT25) Kd equal to > 30 µM (inactive)

Record COc1cc2nccc(Oc3ccc(NC(=O)C4(C(=O)Nc5ccc(F)cc5)CC4)cc3)c2cc1OC [CABOZANTINIB] has Serine/threonine-protein kinase MRCK alpha (Homo sapiens, UniProt Q5VT25) Kd equal to > 30 µM (inactive)

Record CC1(COc2ccc3c(c2)ncn3-c2ccc3cccc(N4CCC(N)CC4)c3n2)COC1 [CRENOLANIB] has Serine/threonine-protein kinase MRCK alpha (Homo sapiens, UniProt Q5VT25) Kd equal to > 30 µM (inactive)

Record Cc1c(Cn2c(C)nc3c(C(=O)O)cc(N4CCOCC4)cc32)cccc1C(F)(F)F [GSK-2636771] has Serine/threonine-protein kinase MRCK alpha (Homo sapiens, UniProt Q5VT25) Kd equal to > 30 µM (inactive)

Record C=CC(=O)Nc1cccc(Nc2nc(Nc3ccc(N4CCN(C(C)=O)CC4)cc3OC)ncc2C(F)(F)F)c1 [ROCILETINIB] has Serine/threonine-protein kinase MRCK alpha (Homo sapiens, UniProt Q5VT25) Kd equal to > 30 µM (inactive)

Record CCOc1ccn(-c2ccc(F)cc2)c(=O)c1C(=O)Nc1ccc(Oc2ccnc(N)c2Cl)c(F)c1 [BMS-777607] has Serine/threonine-protein kinase MRCK alpha (Homo sapiens, UniProt Q5VT25) Kd equal to > 30 µM (inactive)

Record NC(=O)c1ccc(N(C(N)=O)c2c(F)cccc2F)nc1-c1ccc(F)cc1F [VX-702] has Serine/threonine-protein kinase MRCK alpha (Homo sapiens, UniProt Q5VT25) Kd equal to > 30 µM (inactive)

Record COc1cccc(Nc2ncnn3ccc(CN4CC[C@@H](N)[C@H](O)C4)c23)c1 [BMS-690514] has Serine/threonine-protein kinase MRCK alpha (Homo sapiens, UniProt Q5VT25) Kd equal to > 30 µM (inactive)

Record CC(C)CC(=O)Nc1[nH]nc2c1CN(C(=O)C1CCN(C)CC1)C2(C)C [PHA-793887] has Serine/threonine-protein kinase MRCK alpha (Homo sapiens, UniProt Q5VT25) Kd equal to > 30 µM (inactive)

Record COc1cc(Nc2ncc(F)c(Nc3ccc4c(n3)N(COP(=O)(O)O)C(=O)C(C)(C)O4)n2)cc(OC)c1OC [FOSTAMATINIB] has Serine/threonine-protein kinase MRCK alpha (Homo sapiens, UniProt Q5VT25) Kd equal to > 30 µM (inactive)

Record COc1cc(F)c(F)c(Nc2ccc(I)cc2F)c1NS(=O)(=O)C1(C[C@H](O)CO)CC1 [REFAMETINIB] has Serine/threonine-protein kinase MRCK alpha (Homo sapiens, UniProt Q5VT25) Kd equal to > 30 µM (inactive)

Record COCCN1CCN(Cc2ccc(-c3n[nH]c4c3C(=O)c3c(NC(=O)NN5CCOCC5)cccc3-4)cc2)CC1 [RGB-286638] has Serine/threonine-protein kinase MRCK alpha (Homo sapiens, UniProt Q5VT25) Kd equal to 1.09 µM (active)

Record CNC(=O)c1cccc(-c2ccc3c(N4CCOC[C@@H]4C)nc(N4CCOC[C@@H]4C)nc3n2)c1 [VISTUSERTIB] has Serine/threonine-protein kinase MRCK alpha (Homo sapiens, UniProt Q5VT25) Kd equal to > 30 µM (inactive)

Record CC(C)(O)CC(=O)NCCn1ccc2ncnc(Nc3ccc(Oc4cccc(C(F)(F)F)c4)c(Cl)c3)c21 [TAK-285] has Serine/threonine-protein kinase MRCK alpha (Homo sapiens, UniProt Q5VT25) Kd equal to > 30 µM (inactive)

Record COc1cccc2cc(-c3nc([C@H]4CC[C@H](C(=O)O)CC4)n4ncnc(N)c34)[nH]c12 [OSI-027] has Serine/threonine-protein kinase MRCK alpha (Homo sapiens, UniProt Q5VT25) Kd equal to > 30 µM (inactive)

Record FC(F)(F)c1ccc(CNc2ccc(Cc3c[nH]c4ncc(Cl)cc34)cn2)cn1 [PEXIDARTINIB] has Serine/threonine-protein kinase MRCK alpha (Homo sapiens, UniProt Q5VT25) Kd equal to > 30 µM (inactive)

Record O=C(NC[C@H](O)CO)c1ccncc1Nc1ccc(I)cc1F [PIMASERTIB] has Serine/threonine-protein kinase MRCK alpha (Homo sapiens, UniProt Q5VT25) Kd equal to > 30 µM (inactive)
